test_protocol: single oral dose pharmacokinetics in cynomolgus monkeys
Assay type: in vivo, cynomolgus monkey
condition_info: cynomolgus monkey, plasma; monkey, female, single oral 50 mg/kg
measured_endpoint: AUC (ng·h/mL)
Answers are plain numbers, in ng·h/mL.

Give a short answer stating reported AUC for CCOCc1cnc(Cl)nc1Oc1ccc2c(ccc3sc4c(c32)NC[C@@H](C)NC4=O)n1 .
3810

---

test_protocol: pivotal 28-day repeat-dose toxicity study in monkeys
Assay type: in vivo, cynomolgus monkey
condition_info: both sexes, cynomolgus monkey, in vivo; monkeys, 28 days, highest dose used; read-out: NOAEL with respect to dose
measured_endpoint: NOAEL at 28 days
Number first, unit second: that is the form wanted.

Give a short answer stating reported NOAEL at 28 days for CCOCc1cnc(Cl)nc1Oc1ccc2c(ccc3sc4c(c32)NC[C@@H](C)NC4=O)n1 .
375 mg/kg/day

---

test_protocol: toxicokinetics, 28-day monkey study
Assay type: in vivo, cynomolgus monkey
condition_info: male, cynomolgus monkey, plasma, po, 150 mg/kg/day, monkey, Study Day 1, male, 150 mg/kg/day
measured_endpoint: Cmax (ng/mL)
Give bare numbers, in ng/mL.

Give a short answer stating reported Cmax for CCOCc1cnc(Cl)nc1Oc1ccc2c(ccc3sc4c(c32)NC[C@@H](C)NC4=O)n1 .
1240

---

test_protocol: single oral dose pharmacokinetics in CD-1 mice
Assay type: in vivo, mouse
condition_info: CD-1, plasma; mouse, male, single oral 100 mg/kg
measured_endpoint: AUC (ng·h/mL)
One number for each entry, in ng·h/mL.

Give a short answer stating reported AUC for CCOCc1cnc(Cl)nc1Oc1ccc2c(ccc3sc4c(c32)NC[C@@H](C)NC4=O)n1 [Compound 1] .
19200

---

test_protocol: toxicokinetics, 28-day monkey study
Assay type: in vivo, cynomolgus monkey
condition_info: female, cynomolgus monkey, plasma, po, 15 mg/kg/day, monkey, Study Day 1, female, 15 mg/kg/day (so in the source); read-out: AUCLST
measured_endpoint: AUC (ng·h/mL)
Answers are plain numbers, in ng·h/mL.

Give a short answer stating reported AUC for CCOCc1cnc(Cl)nc1Oc1ccc2c(ccc3sc4c(c32)NC[C@@H](C)NC4=O)n1 .
3090

---

test_protocol: toxicokinetics, 28-day monkey study
Assay type: in vivo, cynomolgus monkey
condition_info: cynomolgus monkey, plasma, oral; female monkeys; read-out: AUC0-24, steady state exposure at the NOAEL
measured_endpoint: AUC(0-t)

Give a short answer stating reported AUC(0-t) for CCOCc1cnc(Cl)nc1Oc1ccc2c(ccc3sc4c(c32)NC[C@@H](C)NC4=O)n1 .
~7840 ng·h/mL

---

test_protocol: toxicokinetics, 28-day monkey study
Type: in vivo, cynomolgus monkey
condition_info: female, cynomolgus monkey, plasma, po, 150 mg/kg/day, monkey, Study Day 1, female, 150 mg/kg/day
measured_endpoint: Cmax (ng/mL)
Numbers only, in ng/mL.

Give a short answer stating reported Cmax for CCOCc1cnc(Cl)nc1Oc1ccc2c(ccc3sc4c(c32)NC[C@@H](C)NC4=O)n1 [Compound 1] .
1390

---

test_protocol: toxicokinetics, 28-day mouse study
Assay type: in vivo
condition_info: female, Crl:CD1 (ICR), mouse, plasma, po, 15 mg/kg/day, mice, Study Day 1, female, 15 mg/kg/day
measured_endpoint: Cmax (ng/mL)
Numbers only, in ng/mL.

Give a short answer stating reported Cmax for CCOCc1cnc(Cl)nc1Oc1ccc2c(ccc3sc4c(c32)NC[C@@H](C)NC4=O)n1 .
2980

---

test_protocol: toxicokinetics, 7-day monkey study
Format: in vivo
condition_info: cynomolgus monkey, plasma, oral; monkeys, 75 mg/kg/day; read-out: Mean Day 7 AUC0-last
measured_endpoint: AUC(0-t) (µg·h/mL)
Give bare numbers, in µg·h/mL.

Give a short answer stating reported AUC(0-t) for CCOCc1cnc(Cl)nc1Oc1ccc2c(ccc3sc4c(c32)NC[C@@H](C)NC4=O)n1 .
1.17

---

test_protocol: toxicokinetics, 28-day monkey study
Assay type: in vivo, cynomolgus monkey
condition_info: cynomolgus, cynomolgus monkey, plasma, po; monkey, Study Day 21, male, 375 mg/kg/day
measured_endpoint: Cmax (ng/mL)
Numbers only, in ng/mL.

Give a short answer stating reported Cmax for CCOCc1cnc(Cl)nc1Oc1ccc2c(ccc3sc4c(c32)NC[C@@H](C)NC4=O)n1 .
2340

---

test_protocol: toxicokinetics, 28-day mouse study
Format: in vivo
condition_info: male, Crl:CD1 (ICR), mouse, plasma, po, 100 mg/kg/day, mice, Study Day 1, male, 100 mg/kg/day
measured_endpoint: Cmax (µg/mL)
Numbers only, in µg/mL.

Give a short answer stating reported Cmax for CCOCc1cnc(Cl)nc1Oc1ccc2c(ccc3sc4c(c32)NC[C@@H](C)NC4=O)n1 .
13.9

---

test_protocol: 91-day repeat-dose toxicology study with mice
Format: in vivo, mouse
condition_info: mouse, in vivo, 91-day
measured_endpoint: NOAEL at 91 days (mg/kg/day)
Numbers only, in mg/kg/day.

Give a short answer stating reported NOAEL at 91 days for CCOCc1cnc(Cl)nc1Oc1ccc2c(ccc3sc4c(c32)NC[C@@H](C)NC4=O)n1 [Compound 1] .
100

---

test_protocol: single oral dose pharmacokinetics in CD-1 mice
Format: in vivo, mouse
condition_info: CD-1, plasma; mouse, female, single oral 100 mg/kg; read-out: tmax
measured_endpoint: Tmax (min)
Give bare numbers, in min.

Give a short answer stating reported Tmax for CCOCc1cnc(Cl)nc1Oc1ccc2c(ccc3sc4c(c32)NC[C@@H](C)NC4=O)n1 .
15

---

test_protocol: single intravenous dose pharmacokinetics in CD-1 mice
Type: in vivo, mouse
condition_info: CD-1, plasma; mouse, male, single IV 5 mg/kg; read-out: t1/2,z (converted)
measured_endpoint: half-life
Number first, unit second: that is the form wanted.

Give a short answer stating reported half-life for CCOCc1cnc(Cl)nc1Oc1ccc2c(ccc3sc4c(c32)NC[C@@H](C)NC4=O)n1 [Compound 1] .
7.3 h

---

test_protocol: toxicokinetics, 28-day monkey study
Format: in vivo, cynomolgus monkey
condition_info: female, cynomolgus, cynomolgus monkey, plasma, po, 150 mg/kg/day, monkey, Study Day 21, female, 150 mg/kg/day
measured_endpoint: Cmax (ng/mL)
Give bare numbers, in ng/mL.

Give a short answer stating reported Cmax for CCOCc1cnc(Cl)nc1Oc1ccc2c(ccc3sc4c(c32)NC[C@@H](C)NC4=O)n1 .
1620

---

test_protocol: single intravenous dose pharmacokinetics in CD-1 mice
Format: in vivo, mouse
condition_info: CD-1, plasma; mouse, male, single IV 5 mg/kg; read-out: Vdss
measured_endpoint: Vd (L/kg)
Answers are plain numbers, in L/kg.

Give a short answer stating reported Vd for CCOCc1cnc(Cl)nc1Oc1ccc2c(ccc3sc4c(c32)NC[C@@H](C)NC4=O)n1 .
5.08

---

test_protocol: 28-day repeat-dose oral toxicity study in mice
condition_info: both sexes, Crl:CD1 (ICR), mouse, in vivo; mice, 28 days
measured_endpoint: NOAEL at 28 days

Give a short answer stating reported NOAEL at 28 days for CCOCc1cnc(Cl)nc1Oc1ccc2c(ccc3sc4c(c32)NC[C@@H](C)NC4=O)n1 .
100 mg/kg/day

---

test_protocol: single oral dose pharmacokinetics in Sprague Dawley rats
Type: in vivo
condition_info: both sexes, Sprague Dawley, rat, plasma, 30 mg/kg; rats, oral dosing; read-out: time to maximum plasma concentration (tmax)
measured_endpoint: Tmax

Give a short answer stating reported Tmax for CCOCc1cnc(Cl)nc1Oc1ccc2c(ccc3sc4c(c32)NC[C@@H](C)NC4=O)n1 .
15 to 60 min

---

test_protocol: toxicokinetics, 28-day mouse study;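 as to AUC: AUC to the last measurable time point (AUClast)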
Type: in vivo
condition_info: male, Crl:CD1 (ICR), mouse, plasma, po, 750 mg/kg/day, mice, Study Day 21, male, 750 mg/kg/day
measured_endpoint: AUC (ng·h/mL)
Numbers only, in ng·h/mL.

Give a short answer stating reported AUC for CCOCc1cnc(Cl)nc1Oc1ccc2c(ccc3sc4c(c32)NC[C@@H](C)NC4=O)n1 [Compound 1] .
92800

---

test_protocol: single intravenous dose pharmacokinetics in cynomolgus monkeys
Format: in vivo
condition_info: both sexes, cynomolgus monkey, plasma, iv, 5 mg/kg; monkeys; read-out: terminal half-life
measured_endpoint: half-life

Give a short answer stating reported half-life for CCOCc1cnc(Cl)nc1Oc1ccc2c(ccc3sc4c(c32)NC[C@@H](C)NC4=O)n1 [Compound 1] .
≤ 1 h

---

test_protocol: single oral dose pharmacokinetics in CD-1 mice
Assay type: in vivo, mouse
condition_info: both sexes, CD-1, mouse, plasma, po; mice, doses in the range 15 to 375 mg/kg
measured_endpoint: bioavailability

Give a short answer stating reported bioavailability for CCOCc1cnc(Cl)nc1Oc1ccc2c(ccc3sc4c(c32)NC[C@@H](C)NC4=O)n1 [Compound 1] .
22 to 51%

---

test_protocol: toxicokinetics, single dose and 14-day monkey study
Assay type: in vivo
condition_info: cynomolgus monkey, plasma, po, 375 mg/kg, monkeys, 375 mg/kg, fasted; read-out: Mean Day 1 AUC0-t
measured_endpoint: AUC(0-t) (ng·h/mL)
One number for each entry, in ng·h/mL.

Give a short answer stating reported AUC(0-t) for CCOCc1cnc(Cl)nc1Oc1ccc2c(ccc3sc4c(c32)NC[C@@H](C)NC4=O)n1 [Compound 1] .
11500
